Numbers sourced from the supplement of paper PMC6755084.

B1: minF1; the commonest letter at each place (parent)
chain: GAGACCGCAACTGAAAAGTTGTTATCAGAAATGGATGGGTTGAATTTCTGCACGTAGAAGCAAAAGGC

Variants of: B1
Assay: fraction ligated after 30 min (ligated reads / total reads); higher = more ligase activity
Conditions: with F1*subA RNA substrate (template-directed ligation), 42 °C
property measured: fraction ligated
Please give only the number in your answer, with no unit.

Previously resolved entries follow.
1) GAGACCGCAACTGAAAAGTTGTGATCAGAAGTGGATGGGTTGAATTTCTGCACGTAGAAGCAAAAGGC [T23G A31G] | 0.82
2) GAGACCGCAACTGAAAAGTTGTTATCAGTTATGGATGGGTTGAATTTCTGCACGTAGAAGCAAAAGGC [A29T A30T] | 0.789

variant GAGACCGCAACTGAAAAGTTGTTATTAGAAATGGATGGGTTCAATTTCTGCACGTAGAAGCAAAAGGC [C26T G42C] , fraction ligated observed: 0.00245
